Below is a list of entries, each paired with its recorded protein stability index value.
Test system: Saccharomyces cerevisiae
method summary: protein stability index of tFT-peptide fusion (C-terminal peptide) (PSI (0-1 scale)); higher = more stable (slower turnover)
experimental setup: genetic background: das1 deletion; temperature: 30 C
observable: protein stability index

>>> df
    item_sequence  meas_value
 0   LICRFLFFVCVG       0.377
 1   FVLWYFCCVGCM       0.232
 2   LRSLLIIYLLIF       0.253
 3   LSLPTPLPSPPA       0.457
 4   WDEVVAIVVCPV       0.293
 5   VCVARICIWDFL       0.446
 6   PPHRTLLQLRTN       0.661
 7   FLLYVITYRSET        0.21
 8   FSLSLFPYPFSL       0.686
 9   GGGHGSSCSVCD       0.665
10   PLSPTNLSRLLS       0.651
11   KYKANLGNLKVH       0.632
12   CRLRYSILWFRL       0.245
13   CVCLWCFLVWAR       0.259
14   RIHRRLIKNKRV        0.71
15   LVVYLSCVACIN      0.0277
16   WFCYFSLYVFLL       0.168
17   RKWLFFRSWRYV       0.626
18   LCRCPVGVFVLL        0.39

====

Below is a list of entries, each paired with its recorded protein stability index value.
Test system: Saccharomyces cerevisiae
method summary: protein stability index of tFT-peptide fusion (C-terminal peptide) (PSI (0-1 scale)); higher = more stable (slower turnover)
experimental setup: genetic background: wild type; temperature: 30 C
observable: protein stability index

>>> print(df.to_string())
    item_sequence  meas_value
 0   SLSFSLPLFSLG       0.681
 1   GGWGVGVWGVGG       0.753
 2   SRLRPHNSSTPV       0.716
 3   LPPPAPPSSFPP       0.661
 4   PPRPPLSPPRSA       0.718
 5   RLPPPPPSPFPS       0.778
 6   PPHCSSPTPARH       0.694
 7   RYFPNRGSGLTY       0.786
 8   PSSRPPPPPPPP       0.698
 9   CSLSGAFLNQAR       0.684
10   GRKSESEEEQRR       0.677
11   VLLCASPMLAVV       0.393
12   PPLASFPPPPPL       0.667
13   TKKGQTRPSRTD       0.575
14   RGLGVFGVVSPA         0.7
15   PFSIPPPPPRYP       0.766
16   GVWREVGNIEEV       0.701
17   WVRQYFRGLQLR       0.595
18   EKGRERREGGRK       0.749

====

Below is a list of entries, each paired with its recorded protein stability index value.
System: Saccharomyces cerevisiae
method summary: protein stability index of tFT-peptide fusion (C-terminal peptide) (PSI (0-1 scale)); higher = more stable (slower turnover)
experimental setup: genetic background: wild type; temperature: 30 C
observable: protein stability index

In [3]: df
Out[3]:
                              item_sequence               observable  meas_value
 0     LKKKLYTLEQKK [KEL2 C-terminal 12 aa]  protein stability index       0.624
 1     KLDLPNVFHKKG [CHS2 C-terminal 12 aa]  protein stability index       0.706
 2     GRGAISYSDITI [PEP5 C-terminal 12 aa]  protein stability index        0.69
 3     ESFEKQGKIIYN [MOB2 C-terminal 12 aa]  protein stability index       0.685
 4     MERELIKEEYDN [PAA1 C-terminal 12 aa]  protein stability index        0.67
 5  KDNNISSYGSII [YPL162C C-terminal 12 aa]  protein stability index       0.668
 6     VKKCWEKEKDGI [MKK2 C-terminal 12 aa]  protein stability index       0.663
 7    YAGIPENKIIGV [ARG56 C-terminal 12 aa]  protein stability index       0.702
 8   LYAQLRENGLVP [SNU114 C-terminal 12 aa]  protein stability index       0.683
 9    RLYDRINGKPHD [MRP10 C-terminal 12 aa]  protein stability index       0.668
10     ICKALVKQDLGL [LAP2 C-terminal 12 aa]  protein stability index       0.657
11  KVHRKKVPGCTI [YGR011W C-terminal 12 aa]  protein stability index       0.686
